tested on: Plasmodium berghei; assay: Screen against P. berghei liver stage (PbLuc), transformed with Luciferase, at 10uM; type: functional, HepG2; settings: tested at 10 uM
Screen size: about 69,000 compounds; about 8,600 (12%) showed an effect of 50% or more. This excerpt belongs to a sample that is enriched for strong results.

molecule: CN(C)S(=O)(=O)c1ccc(CNC(=O)c2cn3c(n2)CNCC3)cc1
INHIBITION / %: 39.9
//
molecule: COCC(=O)N1CCC2(CC1)CC(N1CCN(C)CC1)CO2 (stereo not drawn)
INHIBITION / %: 39.3
//
molecule: O=C(CCN1C(=O)CCC1=O)Nc1ccc(OCC(F)(F)F)nc1
INHIBITION / %: 39.4

* * *

INHIBITION for assorted compounds
test system: Plasmodium berghei; experiment: Screen against P. berghei liver stage (PbLuc), transformed with Luciferase, at 10uM; type: functional, HepG2; settings: tested at 10 uM
Among all 69,000 compounds or so, about 8,600 (12%) showed an effect of 50% or more. This is one part of a sample in which strong results are shown more often than they occur.

compound: Cc1cc(Oc2ccccc2)nc(C2CCN(CCO)CC2)n1
INHIBITION [%]: 24.15
--
compound: Cc1ccc2c(n1)N(C)CCN(C(=O)NC1CC1)C2
INHIBITION [%]: 1.28
--
compound: CCn1c(C)nnc1SCCNC(=O)c1cnc(C(C)(C)C)nc1O
INHIBITION [%]: 23.6
--
compound: CNc1cc(C)nc(C2CCN(CCO)CC2)n1
INHIBITION [%]: -2.09
--
compound: O=C1CC(c2ccncc2)C2(CCN(CCO)CC2)N1 (centres undefined)
INHIBITION [%]: 47.8
--
compound: Cc1ccsc1CNC1CCCN(Cc2noc(C3CC3)n2)C1 (centres undefined)
INHIBITION [%]: 31.8
--
compound: O=C1CC[C@H]2CN(C3CCOCC3)CC[C@H]2N1CCC1=CCCCC1
INHIBITION [%]: 58.5
--
compound: NC(=O)Cn1cc(NC(=O)N2CCSCC2)cn1
INHIBITION [%]: -15
--
compound: Cc1noc(C)c1CN1CCC2(CC1)NC(=O)CC2c1ccncc1 (centres undefined)
INHIBITION [%]: 25.5
--
compound: O=C(O)C(c1ccc(O)cc1)N1CCC(N2CCSCC2)CC1 (centres undefined)
INHIBITION [%]: 18.6
--
compound: CNC(=O)C(C)CN(C)C(=O)Nc1cc(F)cc(Br)c1 (centres undefined)
INHIBITION [%]: 83.3
--
compound: O=C1CC(c2ccccc2)C2(CCN(Cc3ccncc3)CC2)N1 (centres undefined)
INHIBITION [%]: 8.64
--
compound: CCn1c(N)nc2cc(C(=O)NCCNc3ncccc3C)cnc21
INHIBITION [%]: -87.1
--
compound: CC(C)c1ncc(CN2CCC(c3n[nH]cc3C(=O)N(C)C)C2)cn1 (centres undefined)
INHIBITION [%]: 10.9
--
compound: CN(CC(O)C1CC1)C(=O)Nc1cc(F)cc(Br)c1 (centres undefined)
INHIBITION [%]: -54.5
--
compound: CC(C)CC(=O)N(C)CC(=O)Nc1ccc(Br)cn1
INHIBITION [%]: 29.7
--
compound: Cc1noc(C)c1CN1CCC2(CC1)NC(=O)CC2c1cnn(C)c1 (centres undefined)
INHIBITION [%]: 12.5
--
compound: O=C1CC(c2ccncc2)C2(CCN(C(=O)c3ccc[nH]3)CC2)N1 (centres undefined)
INHIBITION [%]: 33.5
--
compound: COc1ccc(COCC(=O)N2CCCC(n3cncn3)C2)cc1 (centres undefined)
INHIBITION [%]: -9.76

* * *

INHIBITION for assorted molecules
system: Plasmodium berghei; assay: Screen against P. berghei liver stage (PbLuc), transformed with Luciferase, at 10uM; format: functional, HepG2; conditions: tested at 10 uM
Hit rate of the full screen: of about 69,000 compounds, about 8,600 (12%) showed an effect of 50% or more. The entries come from a sample that favours strong results as a whole.

molecule: Cn1ccnc1CN1CCN(Cc2noc(C3CC3)n2)CC1
unitAbbrev: %
INHIBITION: -15.5
//
molecule: Cc1ccc(CNC(=O)CN2CCOC(Cn3cccn3)C2)s1 (stereo unspecified)
unitAbbrev: %
INHIBITION: -45.4
//
molecule: Cc1cc(C)nc(N2CCC(C(=O)Nc3ncc[nH]3)CC2)n1
unitAbbrev: %
INHIBITION: 47.9
//
molecule: CC(C)c1ccc(C(O)CN2CCN(Cc3nccn3C)CC2)cc1 (stereo unspecified)
unitAbbrev: %
INHIBITION: -65.3
//
molecule: CS(=O)(=O)c1ccc2c(c1)N(C(=O)Cc1cccc(F)c1)CCC2
unitAbbrev: %
INHIBITION: 30.9
//
molecule: CC(CO)NC(=O)c1ccc(NCc2ccccc2)cc1 (stereo unspecified)
unitAbbrev: %
INHIBITION: 19.8

* * *

tested on: Plasmodium berghei; experiment: Screen against P. berghei liver stage (PbLuc), transformed with Luciferase, at 10uM; format: functional, HepG2; details: tested at 10 uM
The campaign covered roughly 69,000 compounds. About 8,600 (12%) showed an effect of 50% or more. This is one part of a sample in which strong results are shown more often than they occur.

compound: N#Cc1ccc(CN2CCc3sccc3C2)c(F)c1
INHIBITION (%): 4.95
--
compound: CC(CN1CCCC1=O)NC(=O)c1ccc(-c2ccco2)[nH]c1=O (centres undefined)
INHIBITION (%): 16.6
--
compound: CCS(=O)(=O)NC[C@]12COC[C@H]1CN(Cc1cc(C)on1)C2
INHIBITION (%): 18.8
--
compound: O=C(O)c1ccn(COc2c(Cl)cccc2Cl)n1
INHIBITION (%): 0.207
--
compound: O=C(NC1CCCC1)c1cc(Sc2ncccn2)ccn1
INHIBITION (%): -48.4
--
compound: CCc1nc2ccccc2c(=O)n1CC1(O)CCN(C(=O)C2CC2)CC1
INHIBITION (%): 18.3
--
compound: COc1cc(OC)cc(C(=O)NCC(c2cccn2C)N2CCCC2)c1 (centres undefined)
INHIBITION (%): 28.4
--
compound: Cc1ccc(C(C)(O)CNC(=O)NCCc2ccc3c(c2)CCO3)o1 (centres undefined)
INHIBITION (%): 23.2
--
compound: CCCc1noc(C2CCCCN2C(=O)CCc2cnn(C)c2)n1 (centres undefined)
INHIBITION (%): 1.56
--
compound: COc1cc(N2CCC3(CC2)OCC(=O)NC3C)ncn1 (centres undefined)
INHIBITION (%): 10.6
--
compound: COc1ccc(C(=O)NCC(c2cccn2C)N2CCN(C)CC2)cc1 (centres undefined)
INHIBITION (%): 6.83
--
compound: COc1ccc(C(=O)NCC(c2cccn2C)N2CCCC2)c(OC)c1 (centres undefined)
INHIBITION (%): -11.1
--
compound: CN(Cc1ccco1)[C@@H]1CN(CC2CCOCC2)C[C@@H]2CCCO[C@@H]21
INHIBITION (%): 38.1
--
compound: O=C(NCCc1nccs1)c1n[nH]c2c1CCC2
INHIBITION (%): -147

* * *

system: Plasmodium berghei; test: Screen against P. berghei liver stage (PbLuc), transformed with Luciferase, at 10uM; format: functional, HepG2; details: tested at 10 uM
The whole screen tested about 69,000 compounds, of which about 8,600 (12%) showed an effect of 50% or more. The full list was thinned out, with strong results kept by preference.
Could you please classify the records by INHIBITION using these ranges: low: < 10%; medium: ≥ 10% and < 40%; high: ≥ 40%

compound: CC[C@H](Nc1nc(C(C)C)nc2c1cnn2C)c1ccccc1
assayedSystem: Plasmodium berghei
qualitativeLabel: high
//
compound: Cc1cccc(C)c1Nc1noc2c1CN(C(=O)c1ccn(C)n1)CC2
assayedSystem: Plasmodium berghei
qualitativeLabel: medium
//
compound: c1cnc(N2CCC(c3n[nH]c4ncccc34)C2)nc1 (stereo not drawn)
assayedSystem: Plasmodium berghei
qualitativeLabel: medium
//
compound: Cc1cc(CNC(=O)N(Cc2ccc(F)cc2F)C2CC2)no1
assayedSystem: Plasmodium berghei
qualitativeLabel: high
//
compound: O=C1Nc2ccccc2C12CCCN(Cc1ccc3c(c1)OCCO3)C2 (stereo not drawn)
assayedSystem: Plasmodium berghei
qualitativeLabel: high
//
compound: CC(C)Oc1ccc(CN2CCC(c3n[nH]c4ncccc34)CC2)cc1
assayedSystem: Plasmodium berghei
qualitativeLabel: high
//
compound: N#Cc1ccc(F)c(CN2CCNC(=O)C2c2cccs2)c1 (stereo not drawn)
assayedSystem: Plasmodium berghei
qualitativeLabel: medium
//
compound: O=C(c1csc(-c2ccccn2)n1)N1CCCC1Cn1cccn1 (stereo not drawn)
assayedSystem: Plasmodium berghei
qualitativeLabel: medium
//
compound: Cc1cnn(CC(C)NCc2cc(=O)n3ccccc3n2)c1 (stereo not drawn)
assayedSystem: Plasmodium berghei
qualitativeLabel: high
//
compound: O=C([C@H]1C[C@H]2OCC[C@H]2N(CC2CC2)C1)N1CCCCO1
assayedSystem: Plasmodium berghei
qualitativeLabel: medium
//
compound: O=C([C@H]1C[C@@H]2[C@@H](C1)OCCN2CC1CC1)N1CCCC1
assayedSystem: Plasmodium berghei
qualitativeLabel: low
//
compound: CS(=O)(=O)c1ccc(CN2CCCC3(C2)C(=O)Nc2ccccc23)cc1 (stereo not drawn)
assayedSystem: Plasmodium berghei
qualitativeLabel: high
//
compound: CC(C)Oc1cccc(CN2CCC(c3n[nH]c4ncccc34)CC2)c1
assayedSystem: Plasmodium berghei
qualitativeLabel: high
//
compound: CNC(=O)[C@H]1C[C@H]2OCC[C@H]2N(CC2CC2)C1
assayedSystem: Plasmodium berghei
qualitativeLabel: medium
//
compound: O=C(NCc1nncn1C1CCCCC1)C1COc2ccccc2O1 (stereo not drawn)
assayedSystem: Plasmodium berghei
qualitativeLabel: medium
//
compound: COC(=O)c1ccn(COc2ccccc2Cl)n1
assayedSystem: Plasmodium berghei
qualitativeLabel: low
//
compound: CN(C)C(=O)Cc1ccc(NC(=O)c2cn(C)nn2)cc1
assayedSystem: Plasmodium berghei
qualitativeLabel: medium
//
compound: O=C([C@H]1C[C@H]2OCC[C@H]2N(CC2CC2)C1)N1CCCC1
assayedSystem: Plasmodium berghei
qualitativeLabel: high
//
compound: O=C([C@H]1C[C@H]2OCC[C@H]2N(CC2CCOCC2)C1)N1CCCCO1
assayedSystem: Plasmodium berghei
qualitativeLabel: high
//
compound: COc1ccc(CCCN(C)C(=O)c2cc(C(C)=O)c[nH]2)cc1OC
assayedSystem: Plasmodium berghei
qualitativeLabel: low
//
compound: COc1ccc(CNC(C)Cn2cccn2)cc1F (stereo not drawn)
assayedSystem: Plasmodium berghei
qualitativeLabel: high
//
compound: Fc1ccc(CN2CCC(c3n[nH]c4ncccc34)CC2)cc1F
assayedSystem: Plasmodium berghei
qualitativeLabel: low
//
compound: CN(C)c1nc(CNC(=O)Nc2cccc([S+](C)[O-])c2)cs1 (stereo not drawn)
assayedSystem: Plasmodium berghei
qualitativeLabel: medium
//
compound: O=C(O)c1ccc(CN2CCC(c3ccnc4ccnn34)CC2)cc1
assayedSystem: Plasmodium berghei
qualitativeLabel: medium
//
compound: CCNC(=O)[C@@H]1CCCN1[C@@H](C(=O)NC)C1CC1
assayedSystem: Plasmodium berghei
qualitativeLabel: high
//
compound: Cc1cnn(CC(C)NCc2ccncc2)c1 (stereo not drawn)
assayedSystem: Plasmodium berghei
qualitativeLabel: low
//
compound: CCn1c(=O)n(CC)c2cc(S(N)(=O)=O)ccc21
assayedSystem: Plasmodium berghei
qualitativeLabel: medium
//
compound: Cn1cc(C(=O)Nc2ccc(CC(=O)NCC(F)(F)F)cc2)nn1
assayedSystem: Plasmodium berghei
qualitativeLabel: high
//
compound: CC(=O)NCc1ccc(C(=O)N2CCCC2c2cnn(C)c2)cc1 (stereo not drawn)
assayedSystem: Plasmodium berghei
qualitativeLabel: low
//
compound: CC(=O)N1CCC(c2[nH]ncc2S(C)(=O)=O)CC1
assayedSystem: Plasmodium berghei
qualitativeLabel: low
//
compound: COCCN1CCC(c2ncc(C(=O)N3CCOCC3)c(C)n2)CC1
assayedSystem: Plasmodium berghei
qualitativeLabel: low
//
compound: C[C@@H](NC(=O)c1cccs1)c1onc(-c2cccnc2)c1C(=O)O
assayedSystem: Plasmodium berghei
qualitativeLabel: low
//
compound: CCC(Nc1nc(C2CCCC2)nc2c1cnn2C)c1ccncc1 (stereo not drawn)
assayedSystem: Plasmodium berghei
qualitativeLabel: high
//
compound: CNC(=O)[C@H]1C[C@H]2OCC[C@H]2N(CC2CCOCC2)C1
assayedSystem: Plasmodium berghei
qualitativeLabel: medium
//
compound: c1ccc(CCN2CCCC2c2ccnc(Nc3cnccn3)n2)cc1 (stereo not drawn)
assayedSystem: Plasmodium berghei
qualitativeLabel: medium
//
compound: CN(CCNC(=O)N1CCN(Cc2ccon2)CC1)C1CCCC1
assayedSystem: Plasmodium berghei
qualitativeLabel: low
//
compound: Cn1cc(C(=O)Nc2ccc(CC(=O)NC3CC3)cc2)nn1
assayedSystem: Plasmodium berghei
qualitativeLabel: medium
